- System: Daphnia magna
- RUN_DESCRIPTION: 48 h LC50 (-log10 mol/L); higher = more toxic
MEASUREMENT_LABEL: 48 h LC50 (-log10 mol/L)
Numbers only.

Consider the following illustrative entries.
COMPOUND	48 h LC50 (-log10 mol/L)
C1=CCCCC1	3.94
CC(C)(C)CC(C)(C)c1ccc(O)cc1	6.36
Nc1ccn([C@H]2CC[C@@H](CO)O2)c(=O)n1	2.07

Respectfully, I request 48 h LC50 (-log10 mol/L) for each entry included below.
1. Cn1cc(-c2ccccc2)c(=O)c(-c2cccc(C(F)(F)F)c2)c1
2. CC[C@H]1OC(=O)[C@H](C)[C@@H](O[C@H]2C[C@@](C)(OC)[C@@H](O)[C@H](C)O2)[C@H](C)[C@@H](O[C@@H]2O[C@H](C)C[C@H](N(C)C)[C@H]2O)[C@](C)(O)C[C@@H](C)C(=O)[C@H](C)[C@@H](O)[C@]1(C)O
3. CCCCOC(=O)c1ccccc1C(=O)OCCCC
4. c1ccc2nc3ccccc3cc2c1
5. O=Cc1ccc(O)c(O)c1O
6. CCCOC(=O)NCCCN(C)C

Completion:
4.9
3.28
4.88
4.85
3.67
3.25

Respectfully, I request 48 h LC50 (-log10 mol/L) for each entry included below.
1. CCCCC(CC)COP(=O)(Oc1ccccc1)Oc1ccccc1 (stereo unspecified)
2. c1ccc2c(c1)sc1ccccc12

Completion:
1. 6.38
2. 5.6

---

- Test system: Tetrahymena pyriformis
- RUN_DESCRIPTION: 48 h IGC50 (-log10 mol/L); higher = more toxic
Outcome label depends on 48 h IGC50 (-log10 mol/L) relative to 4: at/above gives 1.0, below gives 0.0.

Below are worked cases with known answers.
>>> print(df.to_string())
                                  compound  cat
0  N#Cc1cc([N+](=O)[O-])cc([N+](=O)[O-])c1  1.0
1           CCCCC(O)CO (centres undefined)  0.0
2                               CCOC(=O)CC  0.0
3                               Oc1ccccc1O  0.0
4    CCCCCCC1CCC(=O)O1 (centres undefined)  0.0

Prompt: Does the reported 48 h IGC50 (-log10 mol/L) for OCc1ccc2ccccc2c1 fall at or above the 4 mark?
Completion: 0.0

Prompt: Does the reported 48 h IGC50 (-log10 mol/L) for CC#N fall at or above the 4 mark?
Completion: 0.0

Prompt: Does the reported 48 h IGC50 (-log10 mol/L) for CCCC(C)O (centres undefined) fall at or above the 4 mark?
Completion: 0.0

Prompt: Does the reported 48 h IGC50 (-log10 mol/L) for Nc1c(Br)cc(Cl)cc1Br fall at or above the 4 mark?
Completion: 1.0

Prompt: Does the reported 48 h IGC50 (-log10 mol/L) for C#CC(C)(O)CCC (centres undefined) fall at or above the 4 mark?
Completion: 0.0

Prompt: Does the reported 48 h IGC50 (-log10 mol/L) for O=C(OCc1ccccc1)c1ccc(O)cc1 fall at or above the 4 mark?
Completion: 1.0

Prompt: Does the reported 48 h IGC50 (-log10 mol/L) for O=[N+]([O-])c1ccc(Nc2ccccc2)cc1 fall at or above the 4 mark?
Completion: 1.0

Prompt: Does the reported 48 h IGC50 (-log10 mol/L) for CC(C)(C)C(N)=O fall at or above the 4 mark?
Completion: 0.0

Prompt: Does the reported 48 h IGC50 (-log10 mol/L) for CCOC(=O)C(Cl)C(=O)OCC fall at or above the 4 mark?
Completion: 0.0

Prompt: Does the reported 48 h IGC50 (-log10 mol/L) for CCCCCOC(C)=O fall at or above the 4 mark?
Completion: 0.0

Prompt: Does the reported 48 h IGC50 (-log10 mol/L) for Cc1ccc(Cl)c(N)c1Cl fall at or above the 4 mark?
Completion: 0.0

Prompt: Does the reported 48 h IGC50 (-log10 mol/L) for OCc1ccccc1F fall at or above the 4 mark?
Completion: 0.0

Prompt: Does the reported 48 h IGC50 (-log10 mol/L) for CC1=CC(=O)c2c(O)cccc2C1=O fall at or above the 4 mark?
Completion: 1.0

Reference source for all entries: EPA's aquatic toxicity sets
